Reference source for all entries: PubChem BioAssay (NCI)

Test system: NCI-H460 lung
Experiment: NCI tumour cell line growth inhibition, 48 h
QUANTITY: TGI (µM)
State the answer as a number, implicitly in µM.

Exam item: GET /values?readout=TGI&item= "Cc1ccc2c(c1)sc(-c1ccc(N(C)C)cc1)[n+]2C"
Marked response: 8.25

Exam item: GET /values?readout=TGI&item= "CCc1ccc(C2=C(O)C(=O)C(c3ccc(CC)cc3)=C(O)C2=O)cc1"
Marked response: 5

Exam item: GET /values?readout=TGI&item= "CCN(CC)C(=S)SSC1CCCCC1"
Marked response: 52.7

---

Test system: SW-620 colon
Experiment: NCI tumour cell line growth inhibition, 48 h
QUANTITY: TGI

Exam item: GET /values?readout=TGI&item= "Clc1ccc(OCc2nnc(CCCCCCCCc3nnc(COc4ccc(Cl)cc4Cl)o3)o2)c(Cl)c1"
Marked response: > 100 µM

Exam item: GET /values?readout=TGI&item= CC1(C)CCOC(=O)C(Cl)CC1Cl (stereo not drawn)
Marked response: > 100 µM

Exam item: GET /values?readout=TGI&item= CCCCS(=N)(=O)CC[C@H](N)C(=O)O (stereo partly drawn)
Marked response: > 10000 µM
